Each recorded value in this set is attributed to the kinase profiling compilation of Christmann-Franck et al. (2016).

STUDY_SYSTEM: MAPK14 (human) (UniProt Q16539)
Sequence (Q16539 whole entry, looked up): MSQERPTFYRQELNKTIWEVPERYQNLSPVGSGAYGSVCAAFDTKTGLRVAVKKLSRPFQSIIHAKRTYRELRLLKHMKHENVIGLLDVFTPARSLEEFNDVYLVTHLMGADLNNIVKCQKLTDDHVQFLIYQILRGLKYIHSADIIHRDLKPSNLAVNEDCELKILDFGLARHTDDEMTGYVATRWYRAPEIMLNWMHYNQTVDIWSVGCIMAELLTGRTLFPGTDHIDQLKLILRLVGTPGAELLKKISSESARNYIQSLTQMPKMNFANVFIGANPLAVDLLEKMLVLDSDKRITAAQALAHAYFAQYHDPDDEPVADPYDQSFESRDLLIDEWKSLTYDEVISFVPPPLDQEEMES
ASSAY_CONDITIONS: compound 1.0 µM
Listed below: inhibition values for each entry.
MEASUREMENT_TYPE: inhibition (%)

>>> value("O=S(=O)(c1cccc2cnccc12)N1CCCNCC1")
0.9
>>> value("Cc1ccc(-c2nn(C(C)(C)C)c3ncnc(N)c23)cc1")
33.7
>>> value("CC[C@@H](CO)Nc1nc(NCc2ccccc2)c2ncn(C(C)C)c2n1")
5.04
>>> value("C#Cc1cccc(Nc2ncnc3cc(OCCOC)c(OCCOC)cc23)c1")
0
>>> value("O=C1NCCc2[nH]c(-c3ccnc(-c4ccccc4F)c3)cc21")
6.7
>>> value("CS(=O)(=O)CCNCc1ccc(-c2ccc3ncnc(Nc4ccc(OCc5cccc(F)c5)c(Cl)c4)c3c2)o1")
0

---

STUDY_SYSTEM: PAK4 (human)
ASSAY_CONDITIONS: compound 1.0 µM
MEASUREMENT_TYPE: inhibition (%)

>>> value("Cc1ccc(-c2nn(C(C)(C)C)c3ncnc(N)c23)cc1")
5.3
>>> value("O=C1NCCc2[nH]c(-c3ccnc(-c4ccccc4F)c3)cc21")
4.1
>>> value("CC[C@@H](CO)Nc1nc(NCc2ccccc2)c2ncn(C(C)C)c2n1")
2.92
>>> value("C#Cc1cccc(Nc2ncnc3cc(OCCOC)c(OCCOC)cc23)c1")
5.7
>>> value("CS(=O)(=O)CCNCc1ccc(-c2ccc3ncnc(Nc4ccc(OCc5cccc(F)c5)c(Cl)c4)c3c2)o1")
0
>>> value("CS(=O)c1ccc(-c2nc(-c3ccc(F)cc3)c(-c3ccncc3)[nH]2)cc1 (stereo unspecified)")
6.86

---

STUDY_SYSTEM: TAOK3 (human)
ASSAY_CONDITIONS: compound 1.0 µM
Listed below: inhibition values for each entry.
MEASUREMENT_TYPE: inhibition (%)

>>> value("O=S(=O)(c1cccc2cnccc12)N1CCCNCC1")
0
>>> value("C#Cc1cccc(Nc2ncnc3cc(OCCOC)c(OCCOC)cc23)c1")
0
>>> value("O=C1NCCc2[nH]c(-c3ccnc(-c4ccccc4F)c3)cc21")
33.8
>>> value("CS(=O)(=O)CCNCc1ccc(-c2ccc3ncnc(Nc4ccc(OCc5cccc(F)c5)c(Cl)c4)c3c2)o1")
0
>>> value("CC[C@@H](CO)Nc1nc(NCc2ccccc2)c2ncn(C(C)C)c2n1")
3.7
>>> value("CS(=O)c1ccc(-c2nc(-c3ccc(F)cc3)c(-c3ccncc3)[nH]2)cc1 (configuration not stated)")
15.7
>>> value("Cc1ccc(-c2nn(C(C)(C)C)c3ncnc(N)c23)cc1")
17.4

---

STUDY_SYSTEM: UniProt P49137
Sequence (P49137 whole entry, looked up): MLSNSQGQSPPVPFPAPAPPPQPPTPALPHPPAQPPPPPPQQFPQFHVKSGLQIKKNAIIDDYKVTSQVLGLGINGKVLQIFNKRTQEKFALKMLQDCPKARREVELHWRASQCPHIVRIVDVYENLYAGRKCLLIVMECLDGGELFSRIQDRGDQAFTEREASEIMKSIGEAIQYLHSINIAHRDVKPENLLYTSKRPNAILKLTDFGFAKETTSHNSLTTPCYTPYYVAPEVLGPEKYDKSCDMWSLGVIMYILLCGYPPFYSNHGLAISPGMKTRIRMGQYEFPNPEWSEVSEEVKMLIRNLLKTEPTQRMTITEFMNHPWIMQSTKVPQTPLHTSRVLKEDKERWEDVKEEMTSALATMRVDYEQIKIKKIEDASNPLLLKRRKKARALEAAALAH
ASSAY_CONDITIONS: compound 1.0 µM
MEASUREMENT_TYPE: inhibition (%)

>>> value("C#Cc1cccc(Nc2ncnc3cc(OCCOC)c(OCCOC)cc23)c1")
0
>>> value("O=S(=O)(c1cccc2cnccc12)N1CCCNCC1")
0
>>> value("CS(=O)(=O)CCNCc1ccc(-c2ccc3ncnc(Nc4ccc(OCc5cccc(F)c5)c(Cl)c4)c3c2)o1")
0
>>> value("Cc1ccc(-c2nn(C(C)(C)C)c3ncnc(N)c23)cc1")
0.2
>>> value("O=C1NCCc2[nH]c(-c3ccnc(-c4ccccc4F)c3)cc21")
73.7
>>> value("CC[C@@H](CO)Nc1nc(NCc2ccccc2)c2ncn(C(C)C)c2n1")
0
>>> value("CS(=O)c1ccc(-c2nc(-c3ccc(F)cc3)c(-c3ccncc3)[nH]2)cc1 (configuration not stated)")
0

---

STUDY_SYSTEM: LCK (human) (UniProt P06239)
Sequence (P06239 whole entry, looked up): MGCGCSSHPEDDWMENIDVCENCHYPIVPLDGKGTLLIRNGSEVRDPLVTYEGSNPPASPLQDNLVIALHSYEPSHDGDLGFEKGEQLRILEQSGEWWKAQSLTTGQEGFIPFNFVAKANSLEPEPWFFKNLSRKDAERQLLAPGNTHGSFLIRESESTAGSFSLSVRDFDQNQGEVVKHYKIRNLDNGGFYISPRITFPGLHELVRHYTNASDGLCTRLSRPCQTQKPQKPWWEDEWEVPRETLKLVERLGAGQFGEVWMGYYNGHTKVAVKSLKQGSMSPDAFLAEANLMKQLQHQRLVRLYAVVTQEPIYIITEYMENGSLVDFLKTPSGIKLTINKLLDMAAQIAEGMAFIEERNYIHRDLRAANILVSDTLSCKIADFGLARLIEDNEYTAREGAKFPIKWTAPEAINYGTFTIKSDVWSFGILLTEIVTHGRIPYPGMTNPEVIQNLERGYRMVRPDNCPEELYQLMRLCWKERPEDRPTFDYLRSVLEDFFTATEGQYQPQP
ASSAY_CONDITIONS: compound 1.0 µM
MEASUREMENT_TYPE: inhibition

>>> value("O=S(=O)(c1cccc2cnccc12)N1CCCNCC1")
"0%"
>>> value("CC[C@@H](CO)Nc1nc(NCc2ccccc2)c2ncn(C(C)C)c2n1")
"0%"
>>> value("CS(=O)c1ccc(-c2nc(-c3ccc(F)cc3)c(-c3ccncc3)[nH]2)cc1 (stereo unspecified)")
"7.1%"
>>> value("O=C1NCCc2[nH]c(-c3ccnc(-c4ccccc4F)c3)cc21")
"0%"
>>> value("Cc1ccc(-c2nn(C(C)(C)C)c3ncnc(N)c23)cc1")
"94.5%"
>>> value("CS(=O)(=O)CCNCc1ccc(-c2ccc3ncnc(Nc4ccc(OCc5cccc(F)c5)c(Cl)c4)c3c2)o1")
"0%"

---

STUDY_SYSTEM: PRKCB1 (human)
ASSAY_CONDITIONS: compound 1.0 µM
Label criterion met when inhibition >= 20%; otherwise criterion not met.

>>> class_assignment("CS(=O)(=O)CCNCc1ccc(-c2ccc3ncnc(Nc4ccc(OCc5cccc(F)c5)c(Cl)c4)c3c2)o1")
"criterion not met"
>>> class_assignment("CC[C@@H](CO)Nc1nc(NCc2ccccc2)c2ncn(C(C)C)c2n1")
"criterion not met"
>>> class_assignment("O=C1NCCc2[nH]c(-c3ccnc(-c4ccccc4F)c3)cc21")
"criterion not met"
>>> class_assignment("O=S(=O)(c1cccc2cnccc12)N1CCCNCC1")
"criterion not met"
>>> class_assignment("C#Cc1cccc(Nc2ncnc3cc(OCCOC)c(OCCOC)cc23)c1")
"criterion met"
>>> class_assignment("Cc1ccc(-c2nn(C(C)(C)C)c3ncnc(N)c23)cc1")
"criterion not met"
>>> class_assignment("CS(=O)c1ccc(-c2nc(-c3ccc(F)cc3)c(-c3ccncc3)[nH]2)cc1 (configuration not stated)")
"criterion met"

---

STUDY_SYSTEM: UniProt O14965
Sequence (O14965 whole entry, looked up): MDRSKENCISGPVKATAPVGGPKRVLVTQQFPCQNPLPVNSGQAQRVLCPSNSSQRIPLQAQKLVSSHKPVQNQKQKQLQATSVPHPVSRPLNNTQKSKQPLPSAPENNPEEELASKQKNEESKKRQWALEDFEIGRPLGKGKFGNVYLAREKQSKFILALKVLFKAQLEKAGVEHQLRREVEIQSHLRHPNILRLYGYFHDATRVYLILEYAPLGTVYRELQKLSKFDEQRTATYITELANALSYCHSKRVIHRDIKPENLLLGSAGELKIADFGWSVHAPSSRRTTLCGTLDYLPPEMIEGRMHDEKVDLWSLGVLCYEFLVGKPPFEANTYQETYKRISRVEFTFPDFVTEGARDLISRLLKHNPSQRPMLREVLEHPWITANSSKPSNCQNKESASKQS
ASSAY_CONDITIONS: compound 1.0 µM
MEASUREMENT_TYPE: inhibition

>>> value("CS(=O)(=O)CCNCc1ccc(-c2ccc3ncnc(Nc4ccc(OCc5cccc(F)c5)c(Cl)c4)c3c2)o1")
"0%"
>>> value("CS(=O)c1ccc(-c2nc(-c3ccc(F)cc3)c(-c3ccncc3)[nH]2)cc1 (configuration not stated)")
"0%"
>>> value("CC[C@@H](CO)Nc1nc(NCc2ccccc2)c2ncn(C(C)C)c2n1")
"0%"
>>> value("O=S(=O)(c1cccc2cnccc12)N1CCCNCC1")
"4.4%"
>>> value("Cc1ccc(-c2nn(C(C)(C)C)c3ncnc(N)c23)cc1")
"8.8%"
>>> value("O=C1NCCc2[nH]c(-c3ccnc(-c4ccccc4F)c3)cc21")
"0%"
>>> value("C#Cc1cccc(Nc2ncnc3cc(OCCOC)c(OCCOC)cc23)c1")
"39.1%"

---

STUDY_SYSTEM: ROCK1 (human) (UniProt Q13464)
Sequence (Q13464 whole entry, looked up): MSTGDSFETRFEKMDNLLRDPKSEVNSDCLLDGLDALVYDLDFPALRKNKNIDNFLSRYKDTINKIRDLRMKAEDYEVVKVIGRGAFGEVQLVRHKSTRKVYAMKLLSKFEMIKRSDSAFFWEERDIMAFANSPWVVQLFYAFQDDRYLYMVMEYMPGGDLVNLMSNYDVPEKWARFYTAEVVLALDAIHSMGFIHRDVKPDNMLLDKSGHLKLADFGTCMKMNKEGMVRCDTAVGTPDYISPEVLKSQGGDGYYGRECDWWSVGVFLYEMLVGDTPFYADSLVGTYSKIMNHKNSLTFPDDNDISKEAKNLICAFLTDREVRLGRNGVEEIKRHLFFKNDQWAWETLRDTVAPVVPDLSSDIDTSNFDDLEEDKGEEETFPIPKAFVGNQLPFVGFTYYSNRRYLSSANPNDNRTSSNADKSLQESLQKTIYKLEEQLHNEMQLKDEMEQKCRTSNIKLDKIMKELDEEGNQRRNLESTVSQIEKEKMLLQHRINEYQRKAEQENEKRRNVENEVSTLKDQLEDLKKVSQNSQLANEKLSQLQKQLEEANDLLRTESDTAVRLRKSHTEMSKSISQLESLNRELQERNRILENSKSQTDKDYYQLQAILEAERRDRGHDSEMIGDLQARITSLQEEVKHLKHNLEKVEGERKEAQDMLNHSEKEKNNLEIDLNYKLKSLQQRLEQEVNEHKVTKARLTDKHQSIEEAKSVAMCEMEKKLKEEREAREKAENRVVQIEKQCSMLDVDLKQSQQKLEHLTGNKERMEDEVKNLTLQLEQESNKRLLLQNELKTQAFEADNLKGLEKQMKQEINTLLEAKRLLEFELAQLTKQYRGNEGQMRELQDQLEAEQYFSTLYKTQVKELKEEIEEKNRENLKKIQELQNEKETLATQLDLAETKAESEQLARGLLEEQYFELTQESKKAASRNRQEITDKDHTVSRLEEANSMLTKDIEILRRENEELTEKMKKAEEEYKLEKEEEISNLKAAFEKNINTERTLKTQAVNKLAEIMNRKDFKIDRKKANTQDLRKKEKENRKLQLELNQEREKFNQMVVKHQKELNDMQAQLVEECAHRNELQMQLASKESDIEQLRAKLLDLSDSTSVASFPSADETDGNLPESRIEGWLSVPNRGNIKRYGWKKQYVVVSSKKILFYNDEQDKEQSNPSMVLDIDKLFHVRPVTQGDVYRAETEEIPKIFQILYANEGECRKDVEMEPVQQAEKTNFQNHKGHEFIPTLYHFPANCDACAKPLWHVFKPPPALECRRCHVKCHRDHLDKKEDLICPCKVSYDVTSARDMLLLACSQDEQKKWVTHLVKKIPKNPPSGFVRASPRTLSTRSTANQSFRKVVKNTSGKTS
ASSAY_CONDITIONS: compound 1.0 µM
MEASUREMENT_TYPE: inhibition (%)

>>> value("CS(=O)c1ccc(-c2nc(-c3ccc(F)cc3)c(-c3ccncc3)[nH]2)cc1 (configuration not stated)")
4.88
>>> value("CS(=O)(=O)CCNCc1ccc(-c2ccc3ncnc(Nc4ccc(OCc5cccc(F)c5)c(Cl)c4)c3c2)o1")
0
>>> value("CC[C@@H](CO)Nc1nc(NCc2ccccc2)c2ncn(C(C)C)c2n1")
0
>>> value("C#Cc1cccc(Nc2ncnc3cc(OCCOC)c(OCCOC)cc23)c1")
0
>>> value("O=S(=O)(c1cccc2cnccc12)N1CCCNCC1")
86.1
>>> value("Cc1ccc(-c2nn(C(C)(C)C)c3ncnc(N)c23)cc1")
2.8
>>> value("O=C1NCCc2[nH]c(-c3ccnc(-c4ccccc4F)c3)cc21")
5.4

---

STUDY_SYSTEM: MAPK1 (human)
ASSAY_CONDITIONS: compound 1.0 µM
Label condition met when inhibition >= 7%; otherwise condition not met.

>>> class_assignment("CS(=O)(=O)CCNCc1ccc(-c2ccc3ncnc(Nc4ccc(OCc5cccc(F)c5)c(Cl)c4)c3c2)o1")
"condition not met"
>>> class_assignment("C#Cc1cccc(Nc2ncnc3cc(OCCOC)c(OCCOC)cc23)c1")
"condition not met"
>>> class_assignment("CC[C@@H](CO)Nc1nc(NCc2ccccc2)c2ncn(C(C)C)c2n1")
"condition not met"
>>> class_assignment("O=S(=O)(c1cccc2cnccc12)N1CCCNCC1")
"condition not met"
>>> class_assignment("O=C1NCCc2[nH]c(-c3ccnc(-c4ccccc4F)c3)cc21")
"condition met"
>>> class_assignment("Cc1ccc(-c2nn(C(C)(C)C)c3ncnc(N)c23)cc1")
"condition not met"
>>> class_assignment("CS(=O)c1ccc(-c2nc(-c3ccc(F)cc3)c(-c3ccncc3)[nH]2)cc1 (configuration not stated)")
"condition met"

---

STUDY_SYSTEM: IKBKE (human) (UniProt Q14164)
Sequence (Q14164 whole entry, looked up): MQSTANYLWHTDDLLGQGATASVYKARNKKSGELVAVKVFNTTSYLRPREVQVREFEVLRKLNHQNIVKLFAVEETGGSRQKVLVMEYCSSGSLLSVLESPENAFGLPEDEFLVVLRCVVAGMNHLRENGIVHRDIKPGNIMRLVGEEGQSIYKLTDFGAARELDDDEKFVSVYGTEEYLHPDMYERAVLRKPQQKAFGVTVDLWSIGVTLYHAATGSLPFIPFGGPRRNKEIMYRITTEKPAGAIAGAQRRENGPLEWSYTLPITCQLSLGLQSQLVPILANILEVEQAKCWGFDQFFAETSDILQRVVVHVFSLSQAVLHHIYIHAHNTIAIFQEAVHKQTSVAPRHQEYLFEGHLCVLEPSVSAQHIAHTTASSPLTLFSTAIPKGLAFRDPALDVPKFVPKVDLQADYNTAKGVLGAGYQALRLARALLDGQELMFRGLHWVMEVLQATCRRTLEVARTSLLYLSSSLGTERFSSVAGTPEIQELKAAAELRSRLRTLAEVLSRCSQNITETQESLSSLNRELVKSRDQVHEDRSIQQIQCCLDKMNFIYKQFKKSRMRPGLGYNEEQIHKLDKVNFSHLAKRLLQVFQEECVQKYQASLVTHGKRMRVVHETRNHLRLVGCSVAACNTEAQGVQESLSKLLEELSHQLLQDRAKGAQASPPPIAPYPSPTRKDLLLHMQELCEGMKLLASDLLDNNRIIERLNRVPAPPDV
ASSAY_CONDITIONS: compound 1.0 µM
MEASUREMENT_TYPE: inhibition (%)

>>> value("C#Cc1cccc(Nc2ncnc3cc(OCCOC)c(OCCOC)cc23)c1")
6.5
>>> value("CC[C@@H](CO)Nc1nc(NCc2ccccc2)c2ncn(C(C)C)c2n1")
0.63
>>> value("CS(=O)c1ccc(-c2nc(-c3ccc(F)cc3)c(-c3ccncc3)[nH]2)cc1 (configuration not stated)")
0
>>> value("Cc1ccc(-c2nn(C(C)(C)C)c3ncnc(N)c23)cc1")
3.9
>>> value("CS(=O)(=O)CCNCc1ccc(-c2ccc3ncnc(Nc4ccc(OCc5cccc(F)c5)c(Cl)c4)c3c2)o1")
0
>>> value("O=S(=O)(c1cccc2cnccc12)N1CCCNCC1")
0
>>> value("O=C1NCCc2[nH]c(-c3ccnc(-c4ccccc4F)c3)cc21")
0
